test: PK profile in SD rats (i.v. / oral gavage, plasma LC-MS); assay type: in vivo; details: female, rat, oral, GEN1-117 dosed p.o. 10 mg/kg vs i.v. 1 mg/kg
ENDPOINT LABEL: bioavailability (%)
Kindly answer with a numeric value in %, unit omitted.

Exam item: Reported bioavailability, compound O=C(Cc1ccc2ncccc2c1)N1CCC(n2c(=O)[nH]c3cccc(C(F)(F)F)c32)CC1 [GEN1-117] : ____
Marked response: 2.6

====

Entries annotated with measured inhibition at 0.3 µM
molecular target: hERG ion channel (Homo sapiens, UniProt Q12809); construct: expressed in transfected cells; host or cells: CHO cells, stably transfected; experiment: hERG ion channel inhibition, automated QPatch on CHO cells expressing hERG; format: cell-based; conditions: human, CHO cells stably expressing hERG channels, 0.3 μM; read-out: % of hERG inhibition, Cell 2
Sequence (Q12809 whole entry): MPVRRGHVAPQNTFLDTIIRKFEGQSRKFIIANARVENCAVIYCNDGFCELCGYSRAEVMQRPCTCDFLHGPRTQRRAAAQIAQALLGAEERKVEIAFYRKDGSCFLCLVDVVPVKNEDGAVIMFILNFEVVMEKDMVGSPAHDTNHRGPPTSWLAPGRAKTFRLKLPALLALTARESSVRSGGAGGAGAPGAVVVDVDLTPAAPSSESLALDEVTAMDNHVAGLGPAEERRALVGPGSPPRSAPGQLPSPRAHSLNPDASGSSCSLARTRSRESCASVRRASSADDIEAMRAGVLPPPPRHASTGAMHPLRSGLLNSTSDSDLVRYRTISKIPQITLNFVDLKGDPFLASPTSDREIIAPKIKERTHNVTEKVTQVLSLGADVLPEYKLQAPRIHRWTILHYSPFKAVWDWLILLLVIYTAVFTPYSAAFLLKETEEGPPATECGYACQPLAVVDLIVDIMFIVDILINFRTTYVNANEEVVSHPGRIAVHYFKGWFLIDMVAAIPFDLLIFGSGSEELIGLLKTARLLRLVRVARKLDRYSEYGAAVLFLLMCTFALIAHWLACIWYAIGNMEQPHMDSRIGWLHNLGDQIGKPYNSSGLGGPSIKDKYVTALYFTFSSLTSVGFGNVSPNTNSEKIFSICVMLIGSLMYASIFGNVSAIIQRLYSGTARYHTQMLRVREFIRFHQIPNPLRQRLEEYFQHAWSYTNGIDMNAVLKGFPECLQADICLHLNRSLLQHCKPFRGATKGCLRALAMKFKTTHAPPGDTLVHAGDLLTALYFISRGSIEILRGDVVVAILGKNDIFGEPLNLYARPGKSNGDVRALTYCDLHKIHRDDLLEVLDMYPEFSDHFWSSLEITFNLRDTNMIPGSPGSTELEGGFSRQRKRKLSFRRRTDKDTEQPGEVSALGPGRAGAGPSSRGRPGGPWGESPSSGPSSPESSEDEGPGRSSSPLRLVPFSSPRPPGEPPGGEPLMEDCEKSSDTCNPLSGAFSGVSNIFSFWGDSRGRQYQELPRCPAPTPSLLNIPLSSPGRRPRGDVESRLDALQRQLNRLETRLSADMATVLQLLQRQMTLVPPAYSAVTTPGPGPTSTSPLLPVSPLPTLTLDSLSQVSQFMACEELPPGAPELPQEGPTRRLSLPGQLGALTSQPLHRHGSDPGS
Quick note: give the figure in %, leave out the unit.

O=C(Cc1ccc2ncccc2c1)N1CCC(n2c(=O)n(COP(=O)([O-])[O-])c3cccc(C(F)(F)F)c32)CC1.[Na+].[Na+] [GEN1-284 salt] ... 2.25

Exam item: Give its inhibition at 0.3 µM value. Item: O=C(Cc1ccc2ncccc2c1)N1CCC(n2c(=O)[nH]c3cccc(C(F)(F)F)c32)CC1
Marked response: 4.17

Data provenance is patent US20240391940A1.
